- methodDescription: Acute toxicity test, single dose, ICR mice
- measurementSetup: male, in vivo, sc, Mouse (ICR), ♂, subcutaneous, read-out: LD₅₀ Subcutaneous
measureName: LD50

For the molecule `CC(C)=CCC/C(C)=C/CC/C(C)=C/C=C/C(C)=C/C(=O)O` , give its measured LD50 value.
> 4000 mg/kg
